# ASSAY_TEXT: Plasma concentration was determined after 1 hr at a dose 30 mg/kg administered orally to rat-4
# Assay type: ADME, organism-based
# Design: dose 30 mg/kg, route oral
# TEST_SETTINGS: po
TEST_READOUT: concentration at 1 h (ng/mL)
Your answer should be a plain number; it is taken to be in ng/mL.

Input COc1cc2ncnc(N3CCN(/C(S)=N\Cc4ccccc4)CC3)c2cc1OC . Output concentration at 1 h: 8100

====

# ASSAY_TEXT: Plasma concentration was determined after 1 hr at a dose 30 mg/kg administered orally to rat-3
# Assay type: ADME, organism-based
# Design: dose 30 mg/kg, route oral
# TEST_SETTINGS: po
TEST_READOUT: concentration at 1 h (µg/mL)
Your answer should be a plain number; it is taken to be in µg/mL.

Input COc1cc2ncnc(N3CCN(/C(S)=N\Cc4ccccc4)CC3)c2cc1OC . Output concentration at 1 h: 5.4
